Experiment: standard mouse writhing assay (inhibition of induced writhing)
Format: in vivo
Conditions: oral, read-out: Mouse Writhing ED50 p.o. (dose required to inhibit induced writhing by fifty percent)
Listed next: entries and their corresponding ED50.
Unit mg/kg implied. Number only.

The cases that follow already have their ED50 on record.
CCCC1(c2cccc(O)c2)CC(C)N(C)CC1C (centres unmarked) : 16
CC1CC(C)(c2cccc(O)c2)C(C)CN1C (centres unmarked) : 9.2
CCOC(=O)C1(c2ccccc2)CCN(C)CC1 [Meperidine, meperidine, reference compound] : 21
CCCC1(c2cccc(OC)c2)CC(C)N(C)CC1C (centres unmarked) : 11.5

Then this compound:
For reference, reported ED50 for COc1cccc(C2(C)CC(C)N(C)CC2C)c1 (centres unmarked) stands at 16

Values were extracted from patent US4228288A.
